# systemTested: CRBN_C287 (Homo sapiens, UniProt Q96SW2)
# Construct: endogenous in cells; host or cells: cell lysate
# Sequence (Q96SW2 whole entry): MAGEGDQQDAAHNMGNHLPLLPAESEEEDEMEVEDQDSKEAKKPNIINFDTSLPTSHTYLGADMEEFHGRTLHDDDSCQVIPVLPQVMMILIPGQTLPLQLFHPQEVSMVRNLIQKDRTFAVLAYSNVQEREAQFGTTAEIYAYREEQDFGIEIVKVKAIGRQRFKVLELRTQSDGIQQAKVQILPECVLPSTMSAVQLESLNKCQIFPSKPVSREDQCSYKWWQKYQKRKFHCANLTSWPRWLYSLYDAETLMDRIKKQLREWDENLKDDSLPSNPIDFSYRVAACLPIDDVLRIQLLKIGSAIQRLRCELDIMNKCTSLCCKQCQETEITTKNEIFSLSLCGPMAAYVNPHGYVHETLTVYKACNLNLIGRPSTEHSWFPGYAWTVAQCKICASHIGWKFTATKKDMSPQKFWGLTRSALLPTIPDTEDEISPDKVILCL
# methodDescription: CRBN C287 inhibition, probe labeling in lysate (Example 42)
# Format: binding
# testContext: 500 uM, lysate, 1 h; read-out: % inh @ 500 uM (CRBN_C287, lysate 1 h)
metricName: inhibition at 500 µM (%)
# output: bare number, implied unit %

| testSmiles | systemTested | value |
| --- | --- | --- |
| C=CC(=O)N1CCC(Oc2cccc(-c3ccccc3OC)c2)CC1 | CRBN_C287 (Homo sapiens, UniProt Q96SW2) | 91.2 |
| C=CC(=O)N1CCC(Oc2cc(OC)cc(-c3ccccc3)c2)CC1 | CRBN_C287 (Homo sapiens, UniProt Q96SW2) | 91.1 |
| C=CC(=O)N1CCC(Oc2cc(Cl)cc(-c3ccccc3)c2)CC1 | CRBN_C287 (Homo sapiens, UniProt Q96SW2) | 72.2 |
| C=CC(=O)N1CCC(Oc2cc(C#N)cc(-c3ccccc3)c2)CC1 | CRBN_C287 (Homo sapiens, UniProt Q96SW2) | 81.3 |
| C=CC(=O)N1CCC(Oc2cccc(-c3ccccc3O)c2)CC1 | CRBN_C287 (Homo sapiens, UniProt Q96SW2) | 48.9 |
| C=CC(=O)N1CCC(Oc2cccc(-c3ccc(F)cc3OC)c2)CC1 | CRBN_C287 (Homo sapiens, UniProt Q96SW2) | 74.8 |

Input: Data request, read-out inhibition at 500 µM, for COc1ccccc1-c1cc(C#N)cc(OC2CCN(C(=O)/C=C/CN3CCOCC3)CC2)c1
Output: 87.2

Input: Data request, read-out inhibition at 500 µM, for C#CC(=O)N1CCC(Oc2cccc(-c3ccccc3)c2)CC1
Output: 76.8

Input: Data request, read-out inhibition at 500 µM, for C=CC(=O)N1CCC(Oc2cc(Cl)cc(-c3ccccc3OC)c2)CC1
Output: 88.5

The reported measurements were obtained from patent US20220298213A1.
